# subject_of_test: T1, PD-L1 recombinant protein (human, UniProt Q9NZQ7 19-238, limits assumed)
# T1 construct: also called PD-L1 antigen
# protocol_text: ForteBio Octet RED96, PD-L1 immobilised, antibody in solution
# Source text: The antigen was immobilized on the sensor chip surface and the tested antibodies were flown over the immobilized antigens.
Here the recorded koff is given for each entry.
Kindly provide the numeric value in s⁻¹ only, without the unit symbol.

Look over these answered cases.
1. PL004B9 Fc-scFv (Fc fusion, not shown: a dimerising Fc or GST; small tags and cut ends, scFv at the C-terminus of an Fc) scFv: EVQLVESGGGLVQPGGSLRLSCTVSGIDLSVINMGWVRQAPGKGLEWIGTITYVGNTYYASWAKGRFTISKTSTTVDLKITSPTTEDTAVYYCARESGTIYYSYFNLWGQGTLVTVSSGGGGSGGGGSGGGGSGGGGSAFELTQSPSSLSASVGDRVTIKCQASESISNYLSWYQQIPGKVPKLLIYYASNLASGVPSRFSGSGSGTDFTLTISSLQPEDVATYYCQSYYGGGSAYTFGGGTKVEIK = 0.000471
2. PL230C6 mAb (antibody, V domains shown, also called PL23006) VH: QSVEESGGGLVQPGGSLRLSCTASGIDLNTYDMIWVRQAPGKGLEWVGIITYSGSRYYANWAKGRFTISKDNTKNTVYLQMNSLRAEDTAVYYCARDYMSGSHLWGQGTLVTVSS VL: AYDMTQSPSSVSASVGDRVTIKCQASEDIYSFLAWYQQKPGKAPKLLIHSASSLASGVPSRFSGSGSGTDFTLTISSLQPEDFATYYCQQGYGKNNVDNAFGGGTKVEIK = 0.000468
3. PL230C6 Fc-scFv (Fc fusion, scFv at the C-terminus of an Fc; The Fc part is not specified; also called PL23006; not shown: The Fc part and the linker joining it to the scFv) scFv: QSVEESGGGLVQPGGSLRLSCTASGIDLNTYDMIWVRQAPGKGLEWVGIITYSGSRYYANWAKGRFTISKDNTKNTVYLQMNSLRAEDTAVYYCARDYMSGSHLWGQGTLVTVSSGGGGSGGGGSGGGGSGGGGSAYDMTQSPSSVSASVGDRVTIKCQASEDIYSFLAWYQQKPGKAPKLLIHSASSLASGVPSRFSGSGSGTDFTLTISSLQPEDFATYYCQQGYGKNNVDNAFGGGTKVEIK = 0.000362

Prompt: Return reported koff; argument: PL221G5 Fc-scFv (Fc fusion, scFv at the C-terminus of an Fc; The Fc part is not specified; not shown: The Fc part and the linker joining it to the scFv) scFv: EVQLLESGGGLVQPGGSLRLSCAASGFSFSSGYDMCWVRQAPGKGLEWIACIAAGSAGITYDANWAKGRFTISRDNSKNTLYLQMNSLRAEDTAVYYCARSAFSFDYAMDLWGQGTLVTVSSGGGGSGGGGSGGGGSGGGGSDIQMTQSPSTLSASVGDRVTITCQASQSISSHLNWYQQKPGKAPKLLIYKASTLASGVPSRFSGSGSGTEFTLTISSLQPDDFATYYCQQGYSWGNVDNVFGGGTKVEIK
Response: 0.000171

Prompt: Queued: PL221G5 mAb (antibody, V domains shown, Anti-PD-L1 clone tested in mAb format) VH: EVQLLESGGGLVQPGGSLRLSCAASGFSFSSGYDMCWVRQAPGKGLEWIACIAAGSAGITYDANWAKGRFTISRDNSKNTLYLQMNSLRAEDTAVYYCARSAFSFDYAMDLWGQGTLVTVSS VL: DIQMTQSPSTLSASVGDRVTITCQASQSISSHLNWYQQKPGKAPKLLIYKASTLASGVPSRFSGSGSGTEFTLTISSLQPDDFATYYCQQGYSWGNVDNVFGGGTKVEIK
Response: 0.000276

Prompt: Queued: PL004B9 mAb (antibody, V domains shown, Anti-PD-L1 clone tested in mAb format) VH: EVQLVESGGGLVQPGGSLRLSCTVSGIDLSVINMGWVRQAPGKGLEWIGTITYVGNTYYASWAKGRFTISKTSTTVDLKITSPTTEDTAVYYCARESGTIYYSYFNLWGQGTLVTVSS VL: AFELTQSPSSLSASVGDRVTIKCQASESISNYLSWYQQIPGKVPKLLIYYASNLASGVPSRFSGSGSGTDFTLTISSLQPEDVATYYCQSYYGGGSAYTFGGGTKVEIK
Response: 0.000695
